# Target or system: SMVT (Canis lupus familiaris)
# Sequence (A0A8I3MY61 1-636): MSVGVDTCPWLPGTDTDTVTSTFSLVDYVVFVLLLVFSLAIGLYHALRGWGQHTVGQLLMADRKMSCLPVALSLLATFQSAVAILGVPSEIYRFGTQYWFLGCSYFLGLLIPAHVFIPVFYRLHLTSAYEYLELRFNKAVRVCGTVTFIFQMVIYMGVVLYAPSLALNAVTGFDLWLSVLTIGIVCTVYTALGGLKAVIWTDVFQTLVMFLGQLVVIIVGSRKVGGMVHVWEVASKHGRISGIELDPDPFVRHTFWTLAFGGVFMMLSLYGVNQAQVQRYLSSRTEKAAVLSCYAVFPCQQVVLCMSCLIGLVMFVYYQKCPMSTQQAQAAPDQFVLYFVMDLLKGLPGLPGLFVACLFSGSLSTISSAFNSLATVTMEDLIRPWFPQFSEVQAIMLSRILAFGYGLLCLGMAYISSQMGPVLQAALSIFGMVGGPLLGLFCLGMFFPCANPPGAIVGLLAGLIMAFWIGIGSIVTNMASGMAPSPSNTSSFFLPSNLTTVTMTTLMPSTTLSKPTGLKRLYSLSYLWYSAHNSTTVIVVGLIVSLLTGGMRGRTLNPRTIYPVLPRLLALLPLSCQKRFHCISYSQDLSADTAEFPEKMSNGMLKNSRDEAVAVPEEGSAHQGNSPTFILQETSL
# Condition context: read-out: IC50 for inhibition of [3H] biotin uptake; MDCK-MDR1 cells, 0.1–100µM, 30 min
Quantity kind: pIC50
Give bare numbers, as −log10 of the molar value.

CCCCCCC(CCCCCCCCCCC(=O)OCCOCn1cnc2c(=O)[nH]c(N)nc21)OC(=O)CCCC[C@@H]1SC[C@@H]2NC(=O)N[C@@H]21 (some centres unmarked) [B-12HS-ACV, biotin-12hydroxystearicacid-acyclovir] : 5.09

Read the next record carefully.
Please provide the recorded pIC50 for Nc1nc2c(ncn2COCCOC(=O)CCCC[C@@H]2SC[C@@H]3NC(=O)N[C@@H]32)c(=O)[nH]1 [B-ACV, Biotin-ACV] , tested on SMVT (Canis lupus familiaris). 4.83
